System name: PBP3 from Escherichia coli (K-12) (Escherichia coli, UniProt P0AD68)
Sequence (P0AD68 1-577): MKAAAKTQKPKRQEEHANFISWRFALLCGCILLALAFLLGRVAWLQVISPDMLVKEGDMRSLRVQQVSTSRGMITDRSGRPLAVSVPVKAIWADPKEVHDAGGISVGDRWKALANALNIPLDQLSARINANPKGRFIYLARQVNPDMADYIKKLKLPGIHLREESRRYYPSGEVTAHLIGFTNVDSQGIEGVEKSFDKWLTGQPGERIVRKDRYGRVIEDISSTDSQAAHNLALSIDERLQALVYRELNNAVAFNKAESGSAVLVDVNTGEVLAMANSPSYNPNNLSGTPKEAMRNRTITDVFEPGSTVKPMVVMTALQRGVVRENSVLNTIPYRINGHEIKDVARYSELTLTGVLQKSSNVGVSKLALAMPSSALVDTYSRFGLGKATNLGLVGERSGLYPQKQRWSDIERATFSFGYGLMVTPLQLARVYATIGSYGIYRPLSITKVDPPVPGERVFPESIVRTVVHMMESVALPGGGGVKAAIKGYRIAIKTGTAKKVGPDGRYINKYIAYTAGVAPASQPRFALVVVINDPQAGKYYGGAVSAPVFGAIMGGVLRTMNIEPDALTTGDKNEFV
Test: Bocillin-FL fluorescence polarization competition binding, E. coli PBP3
pEC50: −log10 of the molar value.
Observed property: pEC50

Recorded results for 2 compounds are shown here.
Compound	Observed property	Observed
O=C(NCCCN1CCN(C(=O)NC(C(=O)N[C@H]2Cc3ccc(F)c(C(=O)O)c3OB2O)c2cc(F)c(O)c(O)c2Cl)C(=O)C1=O)Nc1ccc(O)cc1 (stereo partly drawn)	pEC50	4.30 to 5.00
O=C(NCCS(=O)(=O)N1CCN(C(=O)N[C@H](C(=O)N[C@H]2Cc3ccc(F)c(C(=O)O)c3OB2O)c2cc(F)c(O)c(O)c2Cl)C1=O)c1nccs1	pEC50	< 3.60

Response field pEC50 (PBP3 from Escherichia coli (K-12) (Escherichia coli, UniProt P0AD68)) for item O=C(CN1CCN(C(=O)NC(C(=O)N[C@H]2Cc3ccc(F)c(C(=O)O)c3OB2O)c2cc(F)c(O)c(O)c2Cl)C(=O)C1=O)NCc1cccnc1 (stereo partly drawn) : > 5.00

###

Kindly state MIC for each of the entries shown.
System: E. coli AG100
Test: microbe, parasite or virus in culture
Type: cell-based
Reported conditions: Escherichia coli, AG100, read-out: MIC E. coli AG100

Recorded results for 6 molecules are shown here.
> print(dat)
                                   molecule    system.name     observed
1  NC(C(=O)N[C@H]1Cc2ccc(F)c(C(=O)O)c2OB1O)c1ccc(P(=O)(O)O)cc1 (stereo partly drawn)  E. coli AG100  > 128 µg/mL
2  Cn1cccc(C(=O)N[C@@H](C(=O)N[C@H]2Cc3cccc(C(=O)O)c3OB2O)c2ccc(P(=O)(O)O)cc2)c1=O (single isomer, unassigned)  E. coli AG100  > 128 µg/mL
3  O=C(NC(C(=O)N[C@H]1Cc2cccc(C(=O)O)c2OB1O)c1ccc(P(=O)(O)O)cc1)c1ccc2ccnn2c1 (stereo partly drawn)  E. coli AG100  > 128 µg/mL
4  O=C(O)c1cccc2c1OB(O)[C@@H](NC(=O)[C@H](NC(=O)c1ccn[nH]c1=O)c1ccc(P(=O)(O)O)cc1)C2 (single isomer, unassigned)  E. coli AG100  > 128 µg/mL
5  CC(=O)N1CCC[C@H]1C(=O)NC(C(=O)N[C@H]1Cc2cccc(C(=O)O)c2OB1O)c1ccc(P(=O)(O)O)cc1 (stereo partly drawn)  E. coli AG100  > 128 µg/mL
6  O=C(O)c1cccc2c1OB(O)[C@@H](NC(=O)C(NS(=O)(=O)C1CC1)c1ccc(P(=O)(O)O)cc1)C2 (stereo partly drawn)  E. coli AG100  > 128 µg/mL

Look at each molecule and report its MIC.
1. O=C(O)c1cccc2c1OB(O)[C@@H](NC(=O)[C@H](NC(=O)[C@@H]1CCCN1)c1ccc(P(=O)(O)O)cc1)C2
2. CS(=O)(=O)NC(C(=O)N[C@H]1Cc2cccc(C(=O)O)c2OB1O)c1ccc(P(=O)(O)O)cc1 (stereo partly drawn)
3. O=C1CC[C@H](C(=O)NC(C(=O)N[C@H]2Cc3cccc(C(=O)O)c3OB2O)c2ccc(P(=O)(O)O)cc2)N1 (stereo partly drawn)

1: > 128 µg/mL; 2: > 128 µg/mL; 3: > 128 µg/mL

Look at each molecule and report its MIC.
1. CS(=O)(=O)N1CCC[C@@H]1C(=O)N[C@H](C(=O)N[C@H]1Cc2cccc(C(=O)O)c2OB1O)c1ccc(P(=O)(O)O)cc1
2. Nc1ncc(C(=O)N[C@@H](C(=O)N[C@H]2Cc3cccc(C(=O)O)c3OB2O)c2ccc(P(=O)(O)O)cc2)s1 (racemic)
3. CCN1CCN(C(=O)N[C@H](C(=O)N[C@H]2Cc3ccc(F)c(C(=O)O)c3OB2O)c2ccc(P(=O)(O)O)cc2)C(=O)C1=O (single isomer, unassigned)
4. O=C(O)c1cccc2c1OB(O)[C@@H](NC(=O)C(NC(=O)C1CC1)c1ccc(P(=O)(O)O)cc1)C2 (stereo partly drawn)
5. CC(C)(C)C(=O)NC(C(=O)N[C@H]1Cc2cccc(C(=O)O)c2OB1O)c1ccc(P(=O)(O)O)cc1 (stereo partly drawn)

["> 128 µg/mL", "> 128 µg/mL", "> 128 µg/mL", "> 128 µg/mL", "> 128 µg/mL"]
